Values from patent US8304216B2

Test system: purified polypeptide (carbonyl reductase) from the Brevundimonas diminuta NBRC 12697 strain
methodNotes: Substrate specificity of purified polypeptide: reducing activity against carbonyl compounds (NADH decrease at 340 nm)
Assay type: biochemical
measurementSetup: substrate 2 mM, NADH 0.167 mM, 100 mM phosphate buffer pH 6.5, 0.4% (v/v) DMSO, 30° C., 3 minutes; activity against ethyl N-Boc-2-amino-3-cyclohexyl-3-oxopropionate taken as 100%
readoutType: relative activity
The reply must contain the numeric value and, after it, the unit.

GET /values?readout=relative activity&item= CCOC(=O)C1CCCC1=O (centres unmarked) [Ethyl 2-oxocyclopentanecarboxylate]
199%

// repeat for CC(=O)c1ccc(Cl)cc1 [p-chloroacetophenone] and report
534%

Let us now turn to O=Cc1ccc(Cl)cc1 [p-chlorobenzaldehyde]
445%

What would you report for CC(=O)c1cccc(Cl)c1 [m-chloroacetophenone] ?
4368%

How about O=Cc1ccccc1Cl [o-chlorobenzaldehyde] ?
1219%

Try this molecule too: CCCCCC=O [n-hexylaldehyde]
2160%

Please answer likewise for CC(C=O)c1ccccc1 (centres unmarked) [2-phenylpropionaldehyde]
621%

Please do the same for CCCC(=O)C(=O)OCC [Ethyl 2-oxopentanoate] as well.
6046%

What do we get for CCOC(=O)C(NC(=O)OC(C)(C)C)C(=O)C1CCCCC1 (centres unmarked) ?
100%

How about this molecule: CCOC(=O)CC(=O)CCl [Ethyl 4-chloroacetoacetate]
533470%

Quick one: O=C(c1ccccc1)C(F)(F)F [2,2,2-trifluoroacetophenone]
42277%

Try the molecule CC(=O)c1ccco1 [2-acetylfuran]
164%

Continue with O=C(CCl)c1cccc(Cl)c1 [2,3′-dichloroacetophenone]
12719%

Try the molecule CC(=O)c1ccccc1Cl [o-chloroacetophenone]
350%

And the next one, CC(=O)C=O [methylglyoxal] ?
248%

Again, but for COC(=O)CC(C)=O [Methyl acetoacetate]
1095%

Further, for CCOC(=O)C(=O)c1ccccc1 [Ethyl benzoylformate] ?
12198%

Lookup COC(=O)C(C)=O [Methyl pyruvate]
5625%

Repeat for the following molecule: CCCCC(C)=O [2-hexanone]
1540%

Entry O=C(CCl)c1ccccc1 [2-chloroacetophenone] please
12789%

Let us now turn to CCOC(=O)C(Cl)C(C)=O (centres unmarked) [Ethyl 2-chloroacetoacetate]
7264%

Another: CC(=O)C(C)=O [diacetyl]
4830%

Now consider O=Cc1cccc(Cl)c1 [m-chlorobenzaldehyde] .
2138%

Item: CCOC(=O)C(Cl)C(=O)c1ccccc1 (centres unmarked) [Ethyl 2-chloro-3-oxo-3-phenylpropionate]
1139%

And what about the molecule CC(=O)CC(C)=O [acetylacetone] ?
273%

And O=C1CCSC1 [tetrahydrothiophen-3-one] ?
156%

Also, CCOC(=O)C(C)C(C)=O (centres unmarked) [Ethyl 2-methylacetoacetate] please.
425%

Entry CC(=O)c1ccncc1 [4-acetylpyrridine] please
1149%

Next entry: CC12CCC(C(=O)C1=O)C2(C)C (centres unmarked) [camphorquinone]
4737%
